Sourced from paper PMC5761851

A collection of molecules and their measured remaining activity at 10 µM
target: Rsk4 (Homo sapiens, UniProt Q9UK32); construct: purchased Eurofins Pharma Discovery Services (KinaseProfiler; Cerep BioPrint panel); assay: kinase selectivity panel; format: biochemical; details: read-out: percentage of control activity (POC), Rsk4
Sequence (Q9UK32 whole entry): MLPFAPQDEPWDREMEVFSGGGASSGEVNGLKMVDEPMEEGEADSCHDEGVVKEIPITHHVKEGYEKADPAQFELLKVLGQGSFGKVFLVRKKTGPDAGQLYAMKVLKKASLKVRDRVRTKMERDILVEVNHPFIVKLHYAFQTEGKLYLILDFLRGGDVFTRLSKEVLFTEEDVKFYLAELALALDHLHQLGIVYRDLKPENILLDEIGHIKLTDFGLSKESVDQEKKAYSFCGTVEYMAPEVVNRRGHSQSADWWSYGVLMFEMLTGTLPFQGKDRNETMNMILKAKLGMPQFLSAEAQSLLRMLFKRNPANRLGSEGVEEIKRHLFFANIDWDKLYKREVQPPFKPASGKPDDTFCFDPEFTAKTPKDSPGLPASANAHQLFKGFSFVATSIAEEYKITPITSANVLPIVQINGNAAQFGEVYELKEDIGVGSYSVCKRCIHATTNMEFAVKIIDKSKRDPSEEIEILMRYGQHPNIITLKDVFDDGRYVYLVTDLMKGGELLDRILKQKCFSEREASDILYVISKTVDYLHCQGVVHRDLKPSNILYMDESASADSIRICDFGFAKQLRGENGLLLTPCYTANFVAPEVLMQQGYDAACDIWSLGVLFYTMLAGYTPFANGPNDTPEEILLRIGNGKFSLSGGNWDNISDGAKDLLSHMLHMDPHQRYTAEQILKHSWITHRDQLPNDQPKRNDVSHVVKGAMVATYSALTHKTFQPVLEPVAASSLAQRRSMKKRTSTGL
Kindly provide the numeric value in % only, without the unit symbol.

The examples below pair each entry with its known result.
Ask | Give me measured remaining activity at 10 µM, please, for this molecule: Cc1ccc(C(=O)NCC2CC2)cc1-c1ccc2c(c1)NC(=O)C21CCCC1 [compound 3]
Reply | 103

Ask | Give me measured remaining activity at 10 µM, please, for this molecule: Cn1cc(-c2cccc(-c3nc(C(=O)NC4C5CC6CC4CC(O)(C6)C5)c(N)nc3N)c2)cn1 (centres unmarked) [compound 4]
Reply | 110

Ask | Give me measured remaining activity at 10 µM, please, for this molecule: COc1c(NC(=O)c2ccc(C)c(-c3nnc4c(NCC(C)(C)C)nccn34)c2)cc(C(C)(C)C)cc1NS(C)(=O)=O [compound 7, reference compound]
Reply | 131

Continuing:
Ask | Give me measured remaining activity at 10 µM, please, for this molecule: CC(C)(C)N1CCC(c2cc(-c3ccc(F)cc3Cl)c3cc[n+]([O-])c(-c4c(Cl)cccc4Cl)c3n2)CC1 [compound 2]
Reply | 102

Ask | Give me measured remaining activity at 10 µM, please, for this molecule: CS(=O)(=O)N1CCN(c2ccc(Nc3ncc(C(N)=O)c(NC4CC4)n3)cc2)CC1 [compound 5]
Reply | 2
